The reported numbers originate from PubChem BioAssay AID1645868.

Target Of Assay: OTU domain-containing protein 3 (Homo sapiens)
Protocol Notes: Validation of screening hits, potency titration, in vitro enzymatic, OTU domain-containing protein 3 DUB inhibitors (AID 1645868)
Measurement Setup: purified OTUD3, ubiquitin-rhodamine cleavage fluorescence, 2 h
Calls of active or inactive are those of the source.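 Rule for the calls: active = maximal percent inhibition of the deubiquitinase OTUD3 of at least 30% across the tested doses; inactive = the rest.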
Log the outcome using a class from active, inactive

(Q) Short answer needed: outcome of this test for O=C(Nc1ccc(F)cc1F)NC1CCN(c2ccccc2)C1=O (stereo not drawn) ?
(A) active

(Q) Short answer needed: outcome of this test for O=C(CSc1ncnc2c1oc1ccccc12)Nc1ccc2c(c1)OCCO2 ?
(A) active

(Q) Short answer needed: outcome of this test for O=[N+]([O-])c1ccc(N2CCN(c3ncnc4c3[nH]c3ccc(F)cc34)CC2)cc1 ?
(A) active

(Q) Short answer needed: outcome of this test for Cc1cc(Nc2ccc(C(=O)NCc3ccco3)cc2)n2nc(-c3cccnc3)nc2n1 ?
(A) active

(Q) Short answer needed: outcome of this test for CCC(C(=O)NCc1ccncc1)N(c1cccc(Cl)c1)S(C)(=O)=O (stereo not drawn) ?
(A) inactive

(Q) Short answer needed: outcome of this test for COc1cccc(NC(=O)C2C3C=CC4(O3)C2C(=O)N(CCc2ccccc2Cl)C4C(=O)NC2CCCCC2)c1 (stereo not drawn) ?
(A) active

(Q) Short answer needed: outcome of this test for Cc1cc(CSc2ncccc2C(=O)Nc2ccnn2Cc2cccnc2)no1 ?
(A) inactive

(Q) Short answer needed: outcome of this test for N#Cc1ccccc1Cn1c(=O)n(Cc2ccco2)c(=O)c2ccccc21 ?
(A) inactive

(Q) Short answer needed: outcome of this test for CCc1c(Cl)c(O)c(Cl)c(O)c1C(=O)O[C@H]1C(C)O[C@@H](OC/C2=C\C=C\CC(O)/C(C)=C/C(CC)C(O[C@@H]3OC(C)(C)[C@H](O)C(OC(=O)C(C)C)[C@@H]3O)/C(C)=C/C(C)=C/CC(C(C)O)OC2=O)[C@@H](OC)C1O (stereo partly drawn) ?
(A) inactive

(Q) Short answer needed: outcome of this test for CCOc1ccc(-c2cc3nc(C4CCN(C(=O)OC(C)(C)C)CC4)c(C(=O)Nc4cc(F)ccc4F)cn3n2)cc1 ?
(A) inactive

(Q) Short answer needed: outcome of this test for C[C@@]12c3ccc4c(c3C(=O)c3occ(c31)C(O)C[C@H]2O)CCC4=O (stereo partly drawn) ?
(A) inactive

(Q) Short answer needed: outcome of this test for Cn1ccnc1CN1C[C@H]2CCN(c3ncccn3)C[C@H]2C1 ?
(A) inactive

(Q) Short answer needed: outcome of this test for O=C(Cc1cccnc1)Nc1ccc(N2CCN(C3CCCCC3)C2=O)nc1 ?
(A) inactive

(Q) Short answer needed: outcome of this test for O=C1C[C@@H](O)[C@H](O)[C@@]23O[C@@]12C1(Oc2cccc4cccc(c24)O1)[C@@H]1O[C@@H]1[C@@H]3O ?
(A) active

(Q) Short answer needed: outcome of this test for O=C(COc1ccc(Cl)cc1Cl)Nc1ccc2[nH]c(=O)[nH]c2c1 ?
(A) active

(Q) Short answer needed: outcome of this test for COc1ccc(-c2nc(-c3nnn(Cc4ccc(F)cc4)c3C)no2)c(OC)c1 ?
(A) active

(Q) Short answer needed: outcome of this test for C[C@]12C(=O)N(c3ccc(C(=O)NCc4ccc(F)cc4)cc3)C(=O)N1CCc1c2[nH]c2ccccc12 ?
(A) inactive

(Q) Short answer needed: outcome of this test for Cc1cccc(OCCn2c(CCNC(=O)C3CCCCC3)nc3ccccc32)c1 ?
(A) active
